Target: T1, Recombinant soluble E protein (0.8E-His) from DENV-2 (DENV-2, UniProt P14340 281-675)
T1 construct: also called DENV-2 E protein; DV2
Experiment: SPR, Biacore T200

{"BINDER": "DG_3CH1000-SG182/3CL666-SK1 (antibody, V domains shown) VH: QVQLVQSGPDVEKPGASVKVSCKASGYTFTSYYMHWVRQAPGQGLEWMGVINPRGGSRRSAQKFQGRITMTRDTSTSTVYMELSSLRSEDTAVYYCARGGRALFYDSYTTPFDGGSWWFDPWGQGSLVTVSS VL: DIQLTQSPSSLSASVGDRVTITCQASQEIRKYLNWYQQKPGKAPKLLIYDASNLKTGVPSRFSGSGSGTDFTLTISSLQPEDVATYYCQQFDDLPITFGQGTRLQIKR", "binding result": "binds"}
{"BINDER": "DG_3CH1000-SG182/3CL668-SK1 (antibody, V domains shown) VH: QVQLVQSGPDVEKPGASVKVSCKASGYTFTSYYMHWVRQAPGQGLEWMGVINPRGGSRRSAQKFQGRITMTRDTSTSTVYMELSSLRSEDTAVYYCARGGRALFYDSYTTPFDGGSWWFDPWGQGSLVTVSS VL: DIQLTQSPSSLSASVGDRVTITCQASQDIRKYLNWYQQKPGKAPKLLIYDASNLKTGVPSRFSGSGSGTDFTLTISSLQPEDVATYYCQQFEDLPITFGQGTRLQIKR", "binding result": "binds"}
